Subject Of Test: PDE4 (Homo sapiens, UniProt Q08499)
Sequence (Q08499 whole entry): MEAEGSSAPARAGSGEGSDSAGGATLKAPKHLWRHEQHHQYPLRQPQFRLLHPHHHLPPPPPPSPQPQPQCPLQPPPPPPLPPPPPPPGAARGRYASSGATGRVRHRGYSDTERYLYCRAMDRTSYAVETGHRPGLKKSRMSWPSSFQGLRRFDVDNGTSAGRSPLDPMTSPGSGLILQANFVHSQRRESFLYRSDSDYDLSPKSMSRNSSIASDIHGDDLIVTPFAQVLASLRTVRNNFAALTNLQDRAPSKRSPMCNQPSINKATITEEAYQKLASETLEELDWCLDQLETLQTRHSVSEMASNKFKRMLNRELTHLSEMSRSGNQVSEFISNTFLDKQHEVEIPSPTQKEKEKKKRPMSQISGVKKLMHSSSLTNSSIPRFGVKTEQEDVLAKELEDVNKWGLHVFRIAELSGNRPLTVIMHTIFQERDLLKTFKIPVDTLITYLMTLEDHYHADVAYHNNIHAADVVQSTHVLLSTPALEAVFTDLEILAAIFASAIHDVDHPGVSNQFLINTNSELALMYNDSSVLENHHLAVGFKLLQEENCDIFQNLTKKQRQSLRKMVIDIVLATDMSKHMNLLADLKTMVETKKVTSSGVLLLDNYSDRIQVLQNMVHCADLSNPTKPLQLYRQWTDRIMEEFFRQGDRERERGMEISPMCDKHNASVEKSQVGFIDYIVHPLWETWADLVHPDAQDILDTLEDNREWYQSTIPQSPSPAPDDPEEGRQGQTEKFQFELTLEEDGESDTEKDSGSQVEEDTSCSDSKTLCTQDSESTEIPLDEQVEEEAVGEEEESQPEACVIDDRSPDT
Protocol: In-vitro assay for PDE4 enzymes, real-time enzyme-coupled spectrophotometric assay (Table 9)
Format: biochemical
Conditions Used: human PDE4D; activity class, Table 9; read-out: hPDE4D
Recorded Endpoint: IC50

Guide cases for IC50, answers given:
# Compound, Result
measured = [
    ("COc1ccc(CN2CCCC2=O)cc1-c1ccccc1", "5 to 20 µM"),
    ("COc1ccc(Cc2ccc3c(c2)OCO3)c(F)c1-c1cccc(Cl)c1", "< 5 µM"),
    ("COc1ccc(Cc2ccc(C(C)N)nc2)c(F)c1-c1cccc(Cl)c1 (centres unmarked)", "< 5 µM"),
    ("COc1ccc(CN2CCNC(=O)C2)c(F)c1-c1cccc(Cl)c1", "< 5 µM"),
]

Return reported IC50; argument: COc1ccc(C(=O)c2ccc(NC(N)=O)cc2)c(F)c1-c1cccc(Cl)c1 < 5 µM
